# experimental_details: Absorption in a Caco-2 cells model
# Format: in vitro ADME
# measurement_setup: human
observation_type: Papp (×10⁻⁶ cm/s)

compound	measurement
O=C(COc1ccc([C@@H]2[C@@H](SCC(O)c3ccc(F)cc3)C(=O)N2c2ccc(F)cc2)cc1)NCC(=O)N[C@H](CC1CCCCC1)C(=O)O (single isomer, unassigned)	0.04
